Recorded values, source ChEMBL document CHEMBL1146551.

Target: Adrenergic receptor alpha-1 (Rattus norvegicus, UniProt P15823+P23944+P43140)
Sequence (P15823 whole entry): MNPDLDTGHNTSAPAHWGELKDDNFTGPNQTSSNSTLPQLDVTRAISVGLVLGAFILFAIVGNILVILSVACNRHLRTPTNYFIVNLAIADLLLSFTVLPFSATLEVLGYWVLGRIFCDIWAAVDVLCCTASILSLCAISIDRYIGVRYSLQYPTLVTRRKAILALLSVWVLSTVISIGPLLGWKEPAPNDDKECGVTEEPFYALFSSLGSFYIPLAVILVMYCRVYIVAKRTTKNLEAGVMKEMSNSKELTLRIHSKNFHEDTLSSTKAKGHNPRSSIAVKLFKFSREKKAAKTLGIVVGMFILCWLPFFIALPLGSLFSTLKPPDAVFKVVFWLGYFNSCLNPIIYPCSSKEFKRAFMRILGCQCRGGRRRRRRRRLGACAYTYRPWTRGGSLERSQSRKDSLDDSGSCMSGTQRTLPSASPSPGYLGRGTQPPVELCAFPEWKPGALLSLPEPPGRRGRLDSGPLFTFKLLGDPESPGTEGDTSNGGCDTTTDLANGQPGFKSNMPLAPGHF
Sequence (P23944 whole entry): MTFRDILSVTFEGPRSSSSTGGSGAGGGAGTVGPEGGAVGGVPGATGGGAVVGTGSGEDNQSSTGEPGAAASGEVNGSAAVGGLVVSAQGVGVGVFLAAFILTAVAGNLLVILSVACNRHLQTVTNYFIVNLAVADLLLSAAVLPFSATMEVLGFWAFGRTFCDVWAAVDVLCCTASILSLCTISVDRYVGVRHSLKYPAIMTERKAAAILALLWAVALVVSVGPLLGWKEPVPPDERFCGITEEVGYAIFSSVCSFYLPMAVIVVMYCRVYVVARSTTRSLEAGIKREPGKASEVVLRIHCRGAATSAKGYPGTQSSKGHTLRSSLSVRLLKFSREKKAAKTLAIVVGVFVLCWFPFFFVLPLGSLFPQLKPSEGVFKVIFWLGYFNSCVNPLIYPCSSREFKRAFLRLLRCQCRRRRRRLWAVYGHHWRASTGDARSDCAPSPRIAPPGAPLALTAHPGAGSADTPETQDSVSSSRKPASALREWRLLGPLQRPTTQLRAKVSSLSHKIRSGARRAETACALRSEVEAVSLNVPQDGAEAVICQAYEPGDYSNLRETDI
Sequence (P43140 whole entry): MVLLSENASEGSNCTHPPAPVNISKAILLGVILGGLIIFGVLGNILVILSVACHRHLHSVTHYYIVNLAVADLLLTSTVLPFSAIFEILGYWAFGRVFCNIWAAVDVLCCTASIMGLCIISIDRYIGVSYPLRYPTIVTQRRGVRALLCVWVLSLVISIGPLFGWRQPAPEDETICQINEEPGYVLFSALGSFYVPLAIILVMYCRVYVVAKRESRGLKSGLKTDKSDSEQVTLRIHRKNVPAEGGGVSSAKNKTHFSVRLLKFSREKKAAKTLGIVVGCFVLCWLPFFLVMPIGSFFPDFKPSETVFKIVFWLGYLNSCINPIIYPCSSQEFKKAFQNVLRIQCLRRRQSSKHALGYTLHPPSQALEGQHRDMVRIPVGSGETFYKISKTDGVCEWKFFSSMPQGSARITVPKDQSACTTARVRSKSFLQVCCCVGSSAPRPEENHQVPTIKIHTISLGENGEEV
Experiment: Displacement of [3H]prazosin from alpha1 adrenergic receptor in Wistar rat cerebral cortex membrane
Type: tissue-based
MEASURED_QUANTITY: pKi

compound="COc1ccc(CC2NCCc3cc(OC)c(O)cc32)cc1 (racemic)" measured_quantity=pKi numeric_readout=4.92
compound="COc1ccc2cc1Oc1ccc(cc1)C[C@H]1c3cc(c(OC)cc3CCN1C)Oc1c(OC)c(OC)cc3c1[C@H](C2)N(C)CC3 [FANCHININ]" measured_quantity=pKi numeric_readout=6.16
compound="COc1cc2c(cc1OC)C(Cc1ccc(O)cc1)NCC2 (racemic)" measured_quantity=pKi numeric_readout=5.23
compound="COc1cc2c(cc1O)C(Cc1ccc(O)cc1)NCC2 (racemic) [COCLAURINE]" measured_quantity=pKi numeric_readout=5.97
compound="COc1cc2c(cc1O)C(Cc1ccc(OCc3ccccc3)cc1)NCC2 (racemic)" measured_quantity=pKi numeric_readout=5.69
compound="COc1ccc(CC2NCCc3cc(OC)c(OCc4ccccc4)cc32)cc1 (racemic)" measured_quantity=pKi numeric_readout=5.34
compound="CCN1CCc2cc(OC)c(O)cc2C1Cc1ccc(O)cc1 (racemic)" measured_quantity=pKi numeric_readout=5.29
compound="COc1cc2c(cc1OC)C(Cc1ccc(O)cc1)N(C)CC2 (racemic)" measured_quantity=pKi numeric_readout=5.14
compound="COc1ccc(CC2c3cc(OCc4ccccc4)c(OC)cc3CCN2C)cc1 (racemic)" measured_quantity=pKi numeric_readout=5.73
compound="COc1cc2c(cc1OCc1ccccc1)C(Cc1ccc(OCc3ccccc3)cc1)N(C)CC2 (racemic)" measured_quantity=pKi numeric_readout=5.12
compound="COc1ccc(CC2c3cc(OC)c(OC)cc3CCN2C)cc1 (racemic)" measured_quantity=pKi numeric_readout=5.1
compound="COc1cc2c(cc1OCc1ccccc1)C(Cc1ccc(O)cc1)NCC2 (racemic)" measured_quantity=pKi numeric_readout=5.49
compound="COc1cc2c(cc1OCc1ccccc1)C(Cc1ccc(O)cc1)N(C)CC2 (racemic)" measured_quantity=pKi numeric_readout=5.49
compound="COc1ccc(CC2c3cc(O)c(OC)cc3CCN2C)cc1 (racemic)" measured_quantity=pKi numeric_readout=5.29
compound="CCN1CCc2cc(OC)c(OC)cc2C1Cc1ccc(O)cc1 (racemic)" measured_quantity=pKi numeric_readout=5.07
compound="CCCN1CCc2cc(OC)c(OCc3ccccc3)cc2C1Cc1ccc(OCc2ccccc2)cc1 (racemic)" measured_quantity=pKi numeric_readout=5.05
compound="COc1cc2c(cc1OCc1ccccc1)C(Cc1ccc(OCc3ccccc3)cc1)NCC2 (racemic)" measured_quantity=pKi numeric_readout=5.02
compound="COc1cc2c(cc1O)C(Cc1ccc(O)cc1)N(C)CC2 (racemic) [METHYL COCLAURINE]" measured_quantity=pKi numeric_readout=5.63

====

System: Aorta
Assay: Vasorelaxant activity against KCl-induced contraction in Wistar rat thoracic aorta in presence of calcium
Format: functional, tissue-based
MEASURED_QUANTITY: log10(IC50) (log10 of the value in µM)

compound="COc1ccc(CC2c3cc(OC)c(OC)cc3CCN2C)cc1 (racemic)" numeric_readout=1.17
compound="COc1cc2c(cc1OCc1ccccc1)C(Cc1ccc(O)cc1)NCC2 (racemic)" numeric_readout=0.88
compound="COc1cc2c(cc1O)C(Cc1ccc(O)cc1)N(C)CC2 (racemic) [METHYL COCLAURINE]" numeric_readout=1.83
compound="COc1ccc(CC2c3cc(OCc4ccccc4)c(OC)cc3CCN2C)cc1 (racemic)" numeric_readout=1.06
compound="COc1cc2c(cc1O)C(Cc1ccc(OCc3ccccc3)cc1)NCC2 (racemic)" numeric_readout=1.14
compound="COc1cc2c(cc1OC)C(Cc1ccc(O)cc1)N(C)CC2 (racemic)" numeric_readout=2.06
compound="COc1cc2c(cc1OCc1ccccc1)C(Cc1ccc(O)cc1)N(C)CC2 (racemic)" numeric_readout=0.76
compound="COc1ccc2cc1Oc1ccc(cc1)C[C@H]1c3cc(c(OC)cc3CCN1C)Oc1c(OC)c(OC)cc3c1[C@H](C2)N(C)CC3 [FANCHININ]" numeric_readout=1.13
compound="COc1ccc(CC2c3cc(O)c(OC)cc3CCN2C)cc1 (racemic)" numeric_readout=1.86

====

Target: Voltage-gated L-type calcium channel (Rattus norvegicus, UniProt P22002+Q02485+P27732)
Experiment: Displacement of [3H]diltiazem from benzothiazepine binding site of L-type calcium channel in Wistar rat cerebral cortex membrane
MEASURED_QUANTITY: pKi

compound="COc1cc2c(cc1OCc1ccccc1)C(Cc1ccc(OCc3ccccc3)cc1)N(C)CC2 (racemic)" numeric_readout=5.74
compound="COc1ccc(CC2NCCc3cc(OC)c(O)cc32)cc1 (racemic)" numeric_readout=4.49
compound="COc1ccc2cc1Oc1ccc(cc1)C[C@H]1c3cc(c(OC)cc3CCN1C)Oc1c(OC)c(OC)cc3c1[C@H](C2)N(C)CC3 [FANCHININ]" numeric_readout=6.13
compound="CCN1CCc2cc(OC)c(OC)cc2C1Cc1ccc(O)cc1 (racemic)" numeric_readout=4.51
compound="COc1cc2c(cc1O)C(Cc1ccc(O)cc1)N(C)CC2 (racemic) [METHYL COCLAURINE]" numeric_readout=4.64
compound="COc1ccc(CC2c3cc(OC)c(OC)cc3CCN2C)cc1 (racemic)" numeric_readout=5.38
compound="CCN1CCc2cc(OC)c(O)cc2C1Cc1ccc(O)cc1 (racemic)" numeric_readout=4.86
compound="COc1cc2c(cc1O)C(Cc1ccc(OCc3ccccc3)cc1)NCC2 (racemic)" numeric_readout=5.57
compound="COc1cc2c(cc1OCc1ccccc1)C(Cc1ccc(O)cc1)N(C)CC2 (racemic)" numeric_readout=5.7
compound="COc1ccc(CC2c3cc(O)c(OC)cc3CCN2C)cc1 (racemic)" numeric_readout=4.9
compound="COc1cc2c(cc1OCc1ccccc1)C(Cc1ccc(OCc3ccccc3)cc1)NCC2 (racemic)" numeric_readout=4.61
compound="COc1cc2c(cc1OCc1ccccc1)C(Cc1ccc(O)cc1)NCC2 (racemic)" numeric_readout=5.6
compound="COc1ccc(CC2c3cc(OCc4ccccc4)c(OC)cc3CCN2C)cc1 (racemic)" numeric_readout=5.82
compound="COc1cc2c(cc1OC)C(Cc1ccc(O)cc1)N(C)CC2 (racemic)" numeric_readout=5.02
compound="CCCN1CCc2cc(OC)c(OCc3ccccc3)cc2C1Cc1ccc(OCc2ccccc2)cc1 (racemic)" numeric_readout=5.75
